These measurements were taken from patent US11649460B2.

Below, each entry is listed with its recorded IC50.
System: SK-BR-3 human breast adenocarcinoma
assay.overview: SRB cell proliferation (cytotoxicity) assay, SK-BR-3
experimental.setup: read-out: IC50: Concentration to inhibit 50% of cell growth; SK-BR-3
Source text: The XLSTAT software was used to determine the IC50, TGI and LC50 values using the four-parameter logistic curve equation.
assay.endpoint: IC50 (µM)

1. AGCTGACACAGCAGGTTGGTGCCCAAAAGAGCCAATCCACGACGACACCCCAAAAACCATATCACGAATACCCGAGTCGAGCAATCTCGAAAT (nucleic acid, chemistry not given here) DNA: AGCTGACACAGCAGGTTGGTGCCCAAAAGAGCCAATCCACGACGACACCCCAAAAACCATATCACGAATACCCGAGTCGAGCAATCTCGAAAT ... 28.3
2. AGCTGACACAGCAGGTTGGTGCCAACAAGAAAAGAAACCGTTACAGAAGACACTACAGAATAAGTGAAAAGCCGAGTCGAGCAATCTCGAAAT (nucleic acid, chemistry not given here) DNA: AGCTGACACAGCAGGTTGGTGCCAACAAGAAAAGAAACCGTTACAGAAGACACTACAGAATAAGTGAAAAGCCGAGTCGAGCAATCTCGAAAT ... 26
3. CTGACACAGCAGGTTGGTGCCAACTAACACCATAAGAATACCCCGCTCCAAATAAGCCCACACGTAAACCCGAGTCGAGCAATCTCGAAAT (nucleic acid, chemistry not given here, DNA aptamer that recognizes human galectin-1) DNA: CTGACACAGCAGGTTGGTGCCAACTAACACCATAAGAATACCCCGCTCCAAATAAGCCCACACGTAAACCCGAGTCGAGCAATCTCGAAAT ... 25
4. AGCTGACACAGCAGGTTGGTGCGCCCAATACAGGCGCAGTATCTGTCCGTGGGCCGGGTAAAAGTTACGGACCGAGTCGAGCAATCTCGAAAT (nucleic acid, chemistry not given here) DNA: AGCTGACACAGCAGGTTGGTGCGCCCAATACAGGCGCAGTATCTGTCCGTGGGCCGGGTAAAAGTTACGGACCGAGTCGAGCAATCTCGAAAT ... 24.3
